# Assay Details: physchem
# Study Conditions: buffer, pH 6.8
Listed compounds paired with reported solubility at 16 h
# number only, unit µM dropped from output

>>> assay_result("CC1(c2ccc(/C=C/C(=O)O)cc2)c2ccc(O)cc2CCN1c1cccc(F)c1 (stereo not drawn)")
561

Now consider a different compound.
Please look up its solubility at 16 h: CC(C)c1ccc(N2CCc3cc(O)ccc3C2(C)c2ccc(/C=C/C(=O)O)cc2)cc1 (stereo not drawn) 94

----------
# Assay Details: Clearance in Sprague-Dawley rat at 3 mg/kg, po administered as solution measured up to 7 hrs by LC/MS/MS analysis
# Type: ADME, organism-based
# Study Conditions: in vivo
Measured Attribute: CL/F (mL/min/kg)
# number only, unit mL/min/kg dropped from output

Please look up its CL/F: CC(C)c1ccc(N2CCc3cc(O)ccc3C2(C)c2ccc(/C=C/C(=O)O)cc2)cc1 (stereo unspecified) 14.9

----------
# Assay Details: Tmax in Sprague-Dawley rat at 30 mg/kg, po administered as suspension measured up to 7 hrs by LC/MS/MS analysis
# Format: ADME, organism-based
# Study Conditions: in vivo
Measured Attribute: Tmax (h)
# number only, unit h dropped from output

Please look up its Tmax: CC(C)c1ccc(N2CCc3cc(O)ccc3C2(C)c2ccc(/C=C/C(=O)O)cc2)cc1 (stereo unspecified) 2

----------
# Assay Details: in vivo
# Study Conditions: C57BL/6, mouse, po, 3 mg/kg
Measured Attribute: bioavailability at 7 h (%)
# number only, unit % dropped from output

Please look up its bioavailability at 7 h: CC(C)c1ccc(N2CCc3cc(O)ccc3C2(C)c2ccc(/C=C/C(=O)O)cc2)cc1 (stereo unspecified) 78

----------
# Assay Details: Elimination half life in Sprague-Dawley rat at 1 mg/kg, iv or 3 mg/kg, po administered as solution measured up to 7 hrs by LC/MS/MS analysis
# Format: ADME, organism-based
# Study Conditions: in vivo, read-out: beta t1/2 (converted)
Measured Attribute: half-life (min)
# number only, unit min dropped from output

Please look up its half-life: CC(C)c1ccc(N2CCc3cc(O)ccc3C2(C)c2ccc(/C=C/C(=O)O)cc2)cc1 (stereo unspecified) 48

----------
# Assay Details: in vivo
# Study Conditions: C57BL/6, mouse, iv, 1 mg/kg
Measured Attribute: clearance at 7 h (mL/min/kg)
# number only, unit mL/min/kg dropped from output

Please look up its clearance at 7 h: CC(C)c1ccc(N2CCc3cc(O)ccc3C2(C)c2ccc(/C=C/C(=O)O)cc2)cc1 (stereo unspecified) 7

----------
# Assay Details: Tmax in Beagle dog at 10 mg/kg, po administered as solution measured up to 7 hrs by LC/MS/MS analysis
# Type: ADME, organism-based, Canis lupus familiaris
# Study Conditions: in vivo
Measured Attribute: Tmax (h)
# number only, unit h dropped from output

Please look up its Tmax: CC(C)c1ccc(N2CCc3cc(O)ccc3C2(C)c2ccc(/C=C/C(=O)O)cc2)cc1 (stereo unspecified) 1.2

----------
# Assay Details: Elimination half life in Beagle dog at 0.3 mg/kg, iv or 10 mg/kg, po administered as solution measured up to 7 hrs by LC/MS/MS analysis
# Format: ADME, organism-based, Canis lupus familiaris
# Study Conditions: in vivo, read-out: beta t1/2 (converted)
Measured Attribute: half-life (h)
# number only, unit h dropped from output

Please look up its half-life: CC(C)c1ccc(N2CCc3cc(O)ccc3C2(C)c2ccc(/C=C/C(=O)O)cc2)cc1 (stereo unspecified) 5
